Reference source: the supplement of paper PMC9446081

- System: Escherichia coli K-12 BW25113;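 also: Wild-type cells incubated without shaking, value is the mean of two biological replicates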
- experiment: relative growth (OD600 normalised to plate interquartile mean) (fraction); higher = less growth inhibition, active = 0.2 or less
- conditionDescription: 50 µM; LB; incubation time: overnight (16-24 h)
Screen size: about 39,000 compounds; about 220 (0.56%) showed activity. The sample holds actives, similar compounds and a random draw of the others, so the mix is not that of the screen.
Answer with one of the outcomes given here: active, inactive

Examples from the recorded data:
CC[C@@H]1OC(=O)[C@H](C)[C@@H](O[C@H]2C[C@@](C)(OC)[C@@H](O)[C@H](C)O2)[C@H](C)[C@@H](O[C@@H]2O[C@H](C)C[C@H](N(C)C)[C@H]2O)[C@](C)(O)C[C@@H](C)/C(=N\OCOCCOC)[C@H](C)[C@@H](O)[C@]1(C)O :: active
CNC1C(OC2C(OC3C(O)C(O)C(NC(=N)N)C(O)C3NC(=N)N)OC(C)C2(O)C=O)OC(CO)C(O)C1O.O=S(=O)(O)O (centres undefined) [STREPTOMYCIN SULFATE [5mM; 10% aq DMSO + 5mM ethanolamine]] :: inactive
C=C1c2cccc(O)c2C(=O)C2=C(O)C3(O)C(=O)C(C(N)=O)=C(O)C(N(C)C)C3C(O)C12.Cl (centres undefined) :: active
Cc1noc(C)c1NC(=O)N(C)C[C@H]1OCCCC[C@@H](C)Oc2ccc(NS(=O)(=O)c3ccccc3)cc2C(=O)N([C@@H](C)CO)C[C@H]1C :: inactive
CCCC#Cc1ccc2c(c1)O[C@@H](CN(C)C(=O)c1cnccn1)[C@@H](C)CN([C@H](C)CO)S2(=O)=O :: inactive

What did this assay record as the result for `CN[C@H]1[C@@H](O[C@H]2[C@@H](O[C@H]3[C@@H](O)[C@@H](O)[C@@H](NC(=N)N)[C@@H](O)[C@@H]3NC(=N)N)O[C@@H](C)[C@@]2(O)C=O)O[C@@H](CO)[C@@H](O)[C@@H]1O.CN[C@H]1[C@@H](O[C@H]2[C@@H](O[C@H]3[C@@H](O)[C@@H](O)[C@@H](NC(=N)N)[C@@H](O)[C@@H]3NC(=N)N)O[C@@H](C)[C@@]2(O)C=O)O[C@@H](CO)[C@@H](O)[C@@H]1O.O=S(=O)(O)O.O=S(=O)(O)O.O=S(=O)(O)O` ? inactive

What did this assay record as the result for `CCC(=O)O[C@H]1[C@H](O[C@@H]2[C@@H](C)[C@H](O[C@H]3C[C@@](C)(OC)[C@@H](O)[C@H](C)O3)[C@@H](C)C(=O)O[C@H](CC)[C@@](C)(O)[C@H](O)[C@@H](C)C(=O)[C@H](C)C[C@@]2(C)O)O[C@H](C)C[C@@H]1N(C)C` ? inactive

What did this assay record as the result for `Cn1cc(CN2CCC(C(=O)N[C@@H](c3ccc(F)cc3)c3ccc4ccccc4n3)CC2)c2ccccc21` ? inactive

What did this assay record as the result for `C[C@@H]1CCCCO[C@H](CN(C)C(=O)Nc2ccccc2)[C@H](C)CN([C@@H](C)CO)C(=O)c2cc(NC(=O)c3ccccc3)ccc2O1` ? inactive

What did this assay record as the result for CCC1OC(=O)C(C)C(OC2CC(C)(OC)C(O)C(C)O2)C(C)C(OC2OC(C)CC(N(C)C)C2O)C(C)(O)CC(C)C2NC(COCCOC)OC(C2C)C1(C)O (centres undefined) ? inactive

What did this assay record as the result for `CC[C@H]1OC(=O)[C@H](C)[C@@H](O[C@H]2C[C@@](C)(OC)[C@@H](O)[C@H](C)O2)[C@H](C)[C@@H](O[C@@H]2O[C@H](C)C[C@H](N(C)C)[C@H]2O)[C@](C)(OC)C[C@@H](C)C(=O)[C@H](C)[C@@H](O)[C@]1(C)O` ? active

What did this assay record as the result for `CC[C@@H]1OC(=O)[C@@H](C)[C@H](O[C@H]2C[C@@](C)(OC)[C@@H](O)[C@H](C)O2)[C@@H](C)[C@H](O)[C@@](C)(O[C@@H]2O[C@H](C)C[C@H](N(C)C)[C@H]2O)C[C@H](C)C(=O)[C@@H](C)[C@H](O)[C@@]1(C)O` ? inactive

What did this assay record as the result for `Cc1noc(C)c1S(=O)(=O)N(C)C[C@@H]1OCCCC[C@H](C)Oc2ccc(NC(=O)Nc3ccc(F)cc3)cc2C(=O)N([C@H](C)CO)C[C@@H]1C` ? inactive

What did this assay record as the result for CNC1C(OC2C(OC3C(O)C(O)C(NC(=N)N)C(O)C3NC(=N)N)OC(C)C2(O)CO)OC(CO)C(O)C1O.O=S(=O)(O)O (centres undefined) ? active
